Tested on: Staphylococcus aureus
Attribute measured: MIC (µg/mL)
# output: bare number, implied unit µg/mL

compound="O=C(Nc1ccccc1)N1CCCC1 [Compound 19, N-phenylpyrrolidine-1-carboxamide]" recorded_result=160
compound="Cc1ccc(NC(=O)N2CCCCC2)cc1 [Compound 17, N-(p-tolyl)piperidine-1-carboxamide]" recorded_result=80
compound="O=C(Nc1ccccc1)N1CCCCC1 [Compound 22, N-phenylpiperidine-1-carboxamide]" recorded_result=40
compound="Cc1ccc(NC(=O)N2CCOCC2)cc1 [Compound 15, N-(p-tolyl)morpholine-4-carboxamide]" recorded_result=40

Now for another entry.
Problem: Recall the reported MIC of Cc1ccc(NC(=O)N2CCN(C)CC2)cc1 when tested on Staphylococcus aureus.
Solution: 320
